The reported numbers originate from the kinase profiling compilation of Christmann-Franck et al. (2016).

TARGET UNDER TEST: PDGFRB (human)
EXPERIMENTAL PROTOCOL: KINOMEscan competition binding
EXPERIMENTAL PARAMETERS: compound 10.0 µM
Field: kinase still bound, per cent of control. Provide a value for each of the compounds that follow.
Report the value in % with no unit label.

Item `CCN1CCN(Cc2cc(NC(=O)c3cccc4cc(-c5ccc(/C=C6\SC(=O)NC6=O)o5)ccc34)cc(C(F)(F)F)c2)CC1` was tested on PDGFRB (human); the reported kinase still bound, per cent of control is 0.25

Item `O=C1NC(=S)S/C1=C\c1ccc(-c2cncc3ccccc23)o1` was tested on PDGFRB (human); the reported kinase still bound, per cent of control is 18

Item `COc1cc(N2CCN(C)CC2)ccc1Nc1ncc2c(n1)N1CCC[C@H]1CC(=O)N2` was tested on PDGFRB (human); the reported kinase still bound, per cent of control is 0.05

Item `NS(=O)(=O)c1ccc(-c2ccc(/C=C3/C(=O)NN(c4ccccc4)C3=O)o2)cc1` was tested on PDGFRB (human); the reported kinase still bound, per cent of control is 33

Item `CS(=O)(=O)Nc1ccc(-c2ncc(/C=C3\SC(=N)NC3=O)s2)cc1` was tested on PDGFRB (human); the reported kinase still bound, per cent of control is 10

Item `CN1C(=O)c2ccccc2N(C)c2nc(Nc3ccc(N4CCC(O)CC4)cc3)ncc21` was tested on PDGFRB (human); the reported kinase still bound, per cent of control is 61

Item `COc1cc(N2CCN(C)CC2)ccc1Nc1ncc2c(n1)N(c1ccccc1)CCC(=O)N2` was tested on PDGFRB (human); the reported kinase still bound, per cent of control is 1.1

Item `CN1C(=O)c2ccccc2N(C)c2nc(Nc3ccc(N4CCC(O)CC4)cn3)ncc21` was tested on PDGFRB (human); the reported kinase still bound, per cent of control is 2.6

Item `CN1C(=O)c2ccccc2N(C)c2nc(NS(=O)(=O)c3ccc(N)cc3)ncc21` was tested on PDGFRB (human); the reported kinase still bound, per cent of control is 76

---

TARGET UNDER TEST: UniProtKB P22455
Sequence (P22455 whole entry, looked up): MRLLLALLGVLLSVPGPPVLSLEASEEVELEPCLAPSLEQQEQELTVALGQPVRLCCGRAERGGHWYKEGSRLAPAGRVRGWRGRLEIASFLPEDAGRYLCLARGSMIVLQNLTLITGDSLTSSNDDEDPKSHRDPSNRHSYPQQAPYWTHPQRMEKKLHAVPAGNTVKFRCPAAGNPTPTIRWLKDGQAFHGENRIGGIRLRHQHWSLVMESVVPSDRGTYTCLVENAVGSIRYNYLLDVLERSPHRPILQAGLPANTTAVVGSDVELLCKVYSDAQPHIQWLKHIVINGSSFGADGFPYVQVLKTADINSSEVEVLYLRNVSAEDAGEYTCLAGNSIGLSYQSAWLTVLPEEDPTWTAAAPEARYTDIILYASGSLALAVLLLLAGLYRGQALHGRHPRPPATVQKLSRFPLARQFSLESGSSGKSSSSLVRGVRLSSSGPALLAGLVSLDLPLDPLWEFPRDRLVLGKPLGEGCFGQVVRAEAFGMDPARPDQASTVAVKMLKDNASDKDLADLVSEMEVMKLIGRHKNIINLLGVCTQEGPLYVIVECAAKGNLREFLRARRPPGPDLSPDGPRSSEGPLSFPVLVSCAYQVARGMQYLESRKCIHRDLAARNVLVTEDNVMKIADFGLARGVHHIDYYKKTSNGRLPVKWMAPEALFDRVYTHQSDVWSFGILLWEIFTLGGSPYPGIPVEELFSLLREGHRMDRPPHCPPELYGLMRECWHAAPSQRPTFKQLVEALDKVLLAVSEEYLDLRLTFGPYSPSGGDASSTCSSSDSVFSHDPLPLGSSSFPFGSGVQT
EXPERIMENTAL PROTOCOL: KINOMEscan competition binding
EXPERIMENTAL PARAMETERS: compound 10.0 µM
Field: kinase still bound, per cent of control. Provide a value for each of the molecules that follow.
Report the value in % with no unit label.

Item `COc1cc(N2CCN(C)CC2)ccc1Nc1ncc2c(n1)N(C)c1ccccc1C(=O)N2` was tested on UniProtKB P22455; the reported kinase still bound, per cent of control is 34

Item `COc1cc(N2CCN(C)CC2)ccc1Nc1ncc2c(n1)Nc1ccccc1NC2=O` was tested on UniProtKB P22455; the reported kinase still bound, per cent of control is 100

Item `CN1C(=O)c2ccccc2N(C)c2nc(Nc3ccc(N4CCC(O)CC4)cn3)ncc21` was tested on UniProtKB P22455; the reported kinase still bound, per cent of control is 25

Item `O=C1NC(=O)/C(=C/c2c[nH]c(=O)c(-c3ccc(N4CCNCC4)nc3)c2)S1` was tested on UniProtKB P22455; the reported kinase still bound, per cent of control is 93

Item `COc1cc(N2CCC(O)CC2)ccc1Nc1ncc2c(n1)N1CCc3cccc(c31)C(=O)N2C` was tested on UniProtKB P22455; the reported kinase still bound, per cent of control is 56
